# maps each entry to its CC50
# Test system: CCRF-CEM
# Type: cell-based
# Condition details: Homo sapiens; CCRF-CEM; five dose; read-out: LC50 (the source's name)
The reply should contain only the number, in µM.

(Q) Suppose we examine the molecule NCCNc1nc2ccccc2c2c(=O)c3cc(Cl)ccc3sc12 [Compound N14] ; what CC50 value has been reported?
(A) 7.64

The record that follows has no CC50 shown yet.
(Q) Suppose we examine the molecule CN(C)CCNc1nc2ccccc2c2c(=O)c3cc(Cl)ccc3sc12 [Compound N7] ; what CC50 value has been reported?
(A) 7.15

====

# Test system: U251
# Format: cell-based
# Condition details: Homo sapiens, U-251; U251; five dose
Experimental readout: LC50 (µM)
The reply should contain only the number, in µM.

(Q) Form field: LC50 recorded for "CN(C)CCNc1nc2ccccc2c2c(=O)c3cc(Cl)ccc3sc12" with U251 (enter value)
(A) 5.44

The record that follows has no LC50 shown yet.
(Q) Form field: LC50 recorded for "NCCNc1nc2ccccc2c2c(=O)c3cc(Cl)ccc3sc12" with U251 (enter value)
(A) 5.78

====

# Tested on: 60 cancer cell lines
# Assay overview: NCI 60-cell screen, SRB, whole panel (mean, delta, range)
# Assay type: cell-based
# Condition details: mean over the cell panel; 10^−5 molar; 48 hours; SRB
Experimental readout: Growth percent, Mean (%)
The reply should contain only the number, in %.

Examples with their reported Growth percent, Mean follow.
(Q) Suppose we examine the compound CCC(CO)Nc1nc2ccccc2c2c(=O)c3cc(Cl)ccc3sc12 (stereo not shown) ; what Growth percent, Mean value has been reported?
(A) 73.52

(Q) Also "CCC(CC)Nc1nc2ccccc2c2c(=O)c3cc(Cl)ccc3sc12" , if possible.
(A) 96.94

(Q) Also "O=c1c2cc(Cl)ccc2sc2c(NCCO)nc3ccccc3c12" , if possible.
(A) 86.33

(Q) Also "CCNc1nc2ccccc2c2c(=O)c3cc(Cl)ccc3sc12" , if possible.
(A) 65.97

(Q) Also "CNc1nc2ccccc2c2c(=O)c3cc(Cl)ccc3sc12" , if possible.
(A) 75.06

(Q) Also "NCCNc1nc2ccccc2c2c(=O)c3cc(Cl)ccc3sc12" , if possible.
(A) −51.89

New cases:
(Q) Suppose we examine the compound CC(C)CC(C)Nc1nc2ccccc2c2c(=O)c3cc(Cl)ccc3sc12 (stereo not shown) ; what Growth percent, Mean value has been reported?
(A) 96.33

(Q) Also "O=c1c2cc(Cl)ccc2sc2c(N3CCN(Cc4ccccc4)CC3)nc3ccccc3c12" , if possible.
(A) 96.19

(Q) Also "O=c1c2ccc(Cl)cc2sc2c(Cl)nc3ccccc3c12" , if possible.
(A) 98.11

(Q) Also "CN(C)CCNc1nc2ccccc2c2c(=O)c3cc(Cl)ccc3sc12" , if possible.
(A) −11.06

====

# maps each entry to its TGI, Mean
# System: 60 cancer cell lines
# Assay overview: NCI 60-cell screen, SRB, whole panel (mean, delta, range)
# Type: cell-based
# Condition details: mean over panel; five dose
The reply should contain only the number, in µM.

Examples with their reported TGI, Mean follow.
(Q) Form field: TGI, Mean recorded for NCCNc1nc2ccccc2c2c(=O)c3cc(Cl)ccc3sc12 [Compound N14] with 60 cancer cell lines (enter value)
(A) 3.39

(Q) Also O=c1c2cc(Cl)ccc2sc2c(NCCCNCCO)nc3ccccc3c12 [Compound N19] , if possible.
(A) 3.39

(Q) Also CCNc1nc2ccccc2c2c(=O)c3cc(Cl)ccc3sc12 [Compound N2] , if possible.
(A) 83.18

New cases:
(Q) Form field: TGI, Mean recorded for CN(C)CCNc1nc2ccccc2c2c(=O)c3cc(Cl)ccc3sc12 [Compound N7] with 60 cancer cell lines (enter value)
(A) 3.39

(Q) Also O=c1c2cc(Cl)ccc2sc2c(NCc3ccccc3)nc3ccccc3c12 [Compound N25] , if possible.
(A) 53.70
